B1: TRIM35 (parent)
chain: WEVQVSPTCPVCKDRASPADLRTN

# Variants of: B1
# Protocol: protein stability index of a GFP-peptide fusion (GPS, HEK-293T) (PSI 1-6); higher = more stable;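 further: lentivirally expressed fusions sorted by FACS into six bins by GFP to DsRed ratio, PSI derived from sequencing read proportions per bin multiplied by bin number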
# Run Parameters: c terminus: a fixed tail appended
Kindly supply the reported protein stability index values for the records listed here.
Numbers only.

Use these answered entries as a reference point.
Look up protein stability index for this variant: `S6G`
2.54

Look up protein stability index for this variant: `A19C`
2.31

Look up protein stability index for this variant: `C12L`
3.8

Look up protein stability index for this variant: `R15W`
2.53

The following variants each have a reported value; give each one's protein stability index.
1. D14K
2. V5M
3. P18N
4. V3W
5. K13N
6. W1A
7. V5N

2.54
2.41
2.39
2.8
2.39
3.05
2.71
